// reported AC50 per item
Biological target: Estrogen receptor (Homo sapiens); note: assay procedure not described here
Sequence (P03372 whole entry): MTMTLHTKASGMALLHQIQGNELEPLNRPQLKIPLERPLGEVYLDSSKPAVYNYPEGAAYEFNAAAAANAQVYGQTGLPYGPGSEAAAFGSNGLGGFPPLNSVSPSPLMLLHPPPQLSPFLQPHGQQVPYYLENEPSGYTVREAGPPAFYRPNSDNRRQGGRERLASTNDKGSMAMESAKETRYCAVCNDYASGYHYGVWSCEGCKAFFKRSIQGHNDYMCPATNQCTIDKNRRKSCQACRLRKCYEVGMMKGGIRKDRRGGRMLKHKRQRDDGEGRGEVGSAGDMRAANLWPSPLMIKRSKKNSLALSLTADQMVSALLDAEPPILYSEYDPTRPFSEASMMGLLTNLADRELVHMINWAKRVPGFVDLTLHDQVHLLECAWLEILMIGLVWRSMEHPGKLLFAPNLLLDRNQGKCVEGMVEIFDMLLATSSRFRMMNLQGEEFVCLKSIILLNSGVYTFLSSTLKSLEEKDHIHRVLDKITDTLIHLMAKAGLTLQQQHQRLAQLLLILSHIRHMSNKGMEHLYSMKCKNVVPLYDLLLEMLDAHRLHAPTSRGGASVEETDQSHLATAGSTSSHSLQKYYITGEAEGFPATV

COMPOUND: CN(C/C=C/c1ccccc1)Cc1cccc2ccccc12
AC50: > 30 µM
--
COMPOUND: NC(CO)C(=O)NNCc1ccc(O)c(O)c1O (stereo unspecified) [BENSERAZIDE]
AC50: 1.72 µM
--
COMPOUND: OCCN1CCN(CCCN2c3ccccc3C=Cc3ccccc32)CC1
AC50: > 30 µM
--
COMPOUND: COc1ccc2cccc(CCNC(C)=O)c2c1
AC50: > 30 µM
--
COMPOUND: O=C(O)c1cc(-c2ccc(F)cc2F)ccc1O
AC50: > 10 µM
--
COMPOUND: NC[C@H]1CC[C@H](C(=O)O)CC1
AC50: > 10 µM
